ASSAYED SYSTEM: HLA-C1402 (Homo sapiens, UniProt P10321, A176E/A330V/A35S/A97T/C350S/D114A/D33S/L171W/L180R/L218V/M285V/M309V/M331V/P208H/Q277E/Q291P/R121W/R243W/S123F/S297R/S48A/T329A/T363A/V319A)
PROTOCOL: Competitive peptide binding assay, CIR-C1402
RECORDED CONDITIONS: HMy2.CIR-C1402 cells, reference Cy5-[…], class from inhibition at 5 and 15 μM, flow cytometry MFI; read-out: Binding affinity with HLA-C1402
Peptide text beside a SMILES is read from it.
Field: IC50. Provide a value for each of the molecules that follow.

Fill in IC50 for record CC[C@H](C)[C@H](NC(=O)[C@@H](NC(=O)[C@@H](N)CO)[C@@H](C)CC)C(=O)N[C@@H](C)C(=O)N[C@@H](Cc1ccc(O)cc1)C(=O)N[C@H](C(=O)N[C@@H](CCSC)C(=O)N[C@@H](CO)C(=O)N[C@@H](CC(C)C)C(=O)O)[C@@H](C)O [Epitope M86] (H-SIIAYTMSL-OH; N-terminus and C-terminus assumed) > 15 µM

Fill in IC50 for record CC[C@H](C)[C@H](NC(=O)[C@H](Cc1ccccc1)NC(=O)[C@@H](N)Cc1ccc(O)cc1)C(=O)N[C@@H](C)C(=O)N[C@@H](CO)C(=O)N[C@@H](Cc1ccccc1)C(=O)N[C@@H](CCCNC(=N)N)C(=O)N[C@@H](CC(C)C)C(=O)N[C@@H](Cc1ccccc1)C(=O)O [Epitope M107] (H-YFIASFRLF-OH; N-terminus and C-terminus assumed) < 5 µM

Taken from paper PMC12133982.
